target: Recombinant IKKβ (Homo sapiens, UniProt O14920); construct: purchased Millipore, Dundee, UK; assay: DELFIA IKKβ kinase assay (apparent Ki, Cheng-Prusoff); type: biochemical; details: DELFIA assay (first line of an example)
Sequence (O14920 whole entry): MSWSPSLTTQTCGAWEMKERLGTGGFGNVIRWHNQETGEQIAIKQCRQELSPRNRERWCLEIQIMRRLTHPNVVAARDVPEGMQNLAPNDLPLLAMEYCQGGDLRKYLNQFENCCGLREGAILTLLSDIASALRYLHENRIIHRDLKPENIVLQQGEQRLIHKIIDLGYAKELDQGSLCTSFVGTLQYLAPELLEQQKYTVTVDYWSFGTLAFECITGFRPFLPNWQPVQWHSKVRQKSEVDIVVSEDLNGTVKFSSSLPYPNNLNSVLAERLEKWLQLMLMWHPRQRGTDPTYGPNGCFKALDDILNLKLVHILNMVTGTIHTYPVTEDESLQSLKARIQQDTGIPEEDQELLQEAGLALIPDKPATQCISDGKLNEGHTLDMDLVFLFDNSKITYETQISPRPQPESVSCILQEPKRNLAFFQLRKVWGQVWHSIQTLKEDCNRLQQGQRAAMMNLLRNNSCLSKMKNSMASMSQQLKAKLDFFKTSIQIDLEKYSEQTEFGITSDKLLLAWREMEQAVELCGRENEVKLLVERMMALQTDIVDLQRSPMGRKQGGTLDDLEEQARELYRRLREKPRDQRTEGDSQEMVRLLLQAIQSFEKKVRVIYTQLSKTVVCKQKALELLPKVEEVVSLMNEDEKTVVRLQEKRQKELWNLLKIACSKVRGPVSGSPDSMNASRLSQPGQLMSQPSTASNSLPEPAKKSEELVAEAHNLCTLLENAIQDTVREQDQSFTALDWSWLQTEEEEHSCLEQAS
measure name: Ki (nM)

Worked cases, Ki given:
smiles_representation=Cc1n[nH]cc1Nc1cc(-c2cc(C#CC(C)(C)C)c3[nH]nc(N)c3c2)ccn1 measure_unit=nM numeric_result=940
smiles_representation=Nc1n[nH]c2c(C#CC3(O)CCCC3)cc(-c3ccnc(NC4COC4)c3)cc12 measure_unit=nM numeric_result=1090

[I] Nc1n[nH]c2ccc(-c3ccnc4[nH]c(CCCNC5CCCCC5)cc34)cc12
[II] COC(=O)Nc1cc(-c2cc(C#CC(C)(C)C)c3[nH]nc(N)c3c2)ccn1
[III] Nc1n[nH]c2c(C#CCCCCC(=O)O)cc(-c3ccnc4[nH]ccc34)cc12
Task: Could you please sort these 3 entries by Ki from high to low? Labels, ranked as asked.
Output: II, III, I
(II: 1170 nM, III: 256 nM, I: 65 nM)
